Target: cynomolgus monkey PCSK9 (cynomolgus monkey, UniProt A0A7N9D9N8 150-747)
Assay: FRET, competitor EGFA peptide
This section presents binders with their documented EC50 values.
Hi! Could you send only the number? It should be in nM, unit omitted.

[[record]]
binder = "2381B02 (designed binder, Anti-PCSK9 Adnectin, His6-tagged) MGVSDVPRDLEVVAATPTSLLISWEPFSRLPGGGEYYRITYGETGGNSPLQQFTVPGSKGTATISGLKPGVDYTITVYAVEYPYDYSGYYHRPISINYRTEIDKPSQHHHHHH"
units = "nM"
measured_result = 9.8


Turning now to a further binder:
Challenge: So what does the record say about EC50 for 1922G04 (designed binder, Anti-PCSK9 Adnectin, His6-tagged; also called ATI001057; ATI-1057) MGVSDVPRDLEVVAATPTSLLISWRPPSHAYGYYRITYGETGGNSPVQEFTVPIGKGTATISGLKPGVDYTITVYAVEYPWKGSGYYHRPISINYRTEIDKPSQHHHHHH ?
Response given: 26.6

The measured values listed here are drawn from patent US20120094909A1.
